recorded_endpoint: melting point

[
  {
    "compound": "COc1ccc(Cl)cc1N1CC(C(=O)O)CC1=O (stereo not drawn)",
    "recorded_endpoint": "melting point",
    "value": "150 to 155 °C"
  },
  {
    "compound": "NCC(O)COc1ccc2c(c1)OCO2 (stereo not drawn)",
    "recorded_endpoint": "melting point",
    "value": "107 to 109 °C"
  },
  {
    "compound": "CC(C)Cc1cc(N)n(C)n1",
    "recorded_endpoint": "melting point",
    "value": "90 to 92 °C"
  },
  {
    "compound": "COc1ccc(-c2cc(C(=O)O)n(-c3ccccc3)n2)cc1",
    "recorded_endpoint": "melting point",
    "value": "190 to 192 °C"
  },
  {
    "compound": "c1ccc2[nH]c(C3CCCNC3)nc2c1 (stereo not drawn)",
    "recorded_endpoint": "melting point",
    "value": "189 to 191 °C"
  },
  {
    "compound": "CNC(=O)NC(C)(C)C(=O)O",
    "recorded_endpoint": "melting point",
    "value": "139 to 141 °C"
  },
  {
    "compound": "Nc1cccc(CN2CCOCC2)n1",
    "recorded_endpoint": "melting point",
    "value": "129 to 131 °C"
  },
  {
    "compound": "O=C1CCCc2cc(Br)ccc2N1",
    "recorded_endpoint": "melting point",
    "value": "119 to 121 °C"
  },
  {
    "compound": "COc1ccc(-c2nc(N)cc(=O)[nH]2)cc1",
    "recorded_endpoint": "melting point",
    "value": "271 to 273 °C"
  },
  {
    "compound": "CC(C)(C)OC(=O)Nc1ccc(F)c(N)c1",
    "recorded_endpoint": "melting point",
    "value": "122 to 124 °C"
  },
  {
    "compound": "CCOC(=O)CNc1cc(Cl)cc(Cl)c1",
    "recorded_endpoint": "melting point",
    "value": "99 to 101 °C"
  },
  {
    "compound": "CS(=O)(=O)c1ccc(O)c(N)c1",
    "recorded_endpoint": "melting point",
    "value": "155 to 157 °C"
  },
  {
    "compound": "NNc1cc(C(F)(F)F)nc(-c2ccncc2)n1",
    "recorded_endpoint": "melting point",
    "value": "233 to 235 °C"
  },
  {
    "compound": "O=C(O)c1ccc(NC(=O)C2CC2)cc1",
    "recorded_endpoint": "melting point",
    "value": "274 to 276 °C"
  },
  {
    "compound": "O=C(O)/C=C/c1cc(Cl)c2c(c1)OCCO2",
    "recorded_endpoint": "melting point",
    "value": "261 to 263 °C"
  },
  {
    "compound": "CC(C)(C)c1ccc(S(=O)(=O)Cl)s1",
    "recorded_endpoint": "melting point",
    "value": "47 to 49 °C"
  },
  {
    "compound": "CNC(c1cccnc1)c1ccc(Cl)cc1Cl (stereo not drawn)",
    "recorded_endpoint": "melting point",
    "value": "111 to 113 °C"
  },
  {
    "compound": "COc1c(F)cc(Br)cc1S(=O)(=O)Cl",
    "recorded_endpoint": "melting point",
    "value": "50 to 52 °C"
  },
  {
    "compound": "Cc1nc(Cl)c(Cl)nc1C",
    "recorded_endpoint": "melting point",
    "value": "77 to 79 °C"
  },
  {
    "compound": "O=Cc1cn(Cc2ccccc2)nc1-c1cccs1",
    "recorded_endpoint": "melting point",
    "value": "90 to 91 °C"
  },
  {
    "compound": "Cc1cc(S(=O)(=O)c2ccc(O)c(C)c2)ccc1O",
    "recorded_endpoint": "melting point",
    "value": "273 to 276 °C"
  },
  {
    "compound": "O=Cc1cnc(-c2ccccn2)s1",
    "recorded_endpoint": "melting point",
    "value": "149 to 151 °C"
  },
  {
    "compound": "O=C1CCn2cccc21",
    "recorded_endpoint": "melting point",
    "value": "54 to 56 °C"
  },
  {
    "compound": "O=C(O)C(Oc1ccc(F)cc1Cl)c1ccccc1 (stereo not drawn)",
    "recorded_endpoint": "melting point",
    "value": "134 to 136 °C"
  },
  {
    "compound": "O=C(O)C1CC1(Cl)Cl (stereo not drawn)",
    "recorded_endpoint": "melting point",
    "value": "74 to 76 °C"
  },
  {
    "compound": "O=C1CCCCC1N1CCS(=O)(=O)CC1 (stereo not drawn)",
    "recorded_endpoint": "melting point",
    "value": "105 to 107 °C"
  },
  {
    "compound": "COc1ccc(-n2c(C)cc(C(=O)CCl)c2C)cc1",
    "recorded_endpoint": "melting point",
    "value": "91 to 95 °C"
  },
  {
    "compound": "COc1ccc(Cn2[nH]ccc2=N)c(OC)c1",
    "recorded_endpoint": "melting point",
    "value": "76 to 78 °C"
  }
]
